Test system: CCRF-CEM leukemia
test.protocol: NCI-60 one-dose screen, 48 h (100 = growth as untreated, 0 = no growth, -100 = all killed)
condition.info: 10 µM unless noted
The panel holds about 83,000 compounds, 20% with a hit somewhere; the sample as a whole holds those more often.
Reported growth values follow for various compounds
Write the number in % without appending the unit.

Solved entries:
* O=C(Nc1ccc(Cl)cc1)c1cc2ccccc2cc1O | 17.8
* C1CCCCNCCC1 | 104
* CCOC(=O)C(C(=O)OCC)C(c1ccccc1)N1CCN(c2ccccc2)CC1 (centres undefined) | 95.9

Now turn to the next compound.
(Q) Requested field: growth. Item: `CCOC(=O)c1sc(N)nc1-c1ccccc1`
(A) 97.7
